target: SARS-CoV-2 RBD (SARS-CoV-2, UniProt P0DTC2); assay: ELISA
We begin with a simple list: items and their reported log10 EC50.
Response schema: value (number) is log10 of EC50 in units of ng/mL.

Record excerpt, results attached:
>  <Binder>
C013 (antibody, V domains shown) VH: QVQLVQSGAEVKKPGSSVKVSCKASGGTFSSYAISWVRQAPGQGLEWMGGIIPIFGTANYAQKFQGRVTITADESTSTAYMELSSLRSEDTAVYYCARGNRLLYCSSTSCYLDAVRQGYYYYYYMDVWGKGTTVTVSS VL: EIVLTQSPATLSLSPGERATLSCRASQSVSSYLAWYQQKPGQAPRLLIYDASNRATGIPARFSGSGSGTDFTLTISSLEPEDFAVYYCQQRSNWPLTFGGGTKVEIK

>  <log10 EC50>
0.41

$$$$
>  <Binder>
C114 (antibody, V domains shown) VH: QVQLVESGGGLIQPGGSLKLSCVVSGFTVSKNYISWVRQAPGKGLEWVSVIFAGGSTFYADSVKGRFAISRDNSNNTLFLQMNSLRVEDTAIYYCARGDGELFFDQWGQGTLVTVSS VL: QSVLTQPPSVSGAPGQRVTISCTGTSSNIGAGYDVHWYQQLPGRAPKVLISGNNIRPSEVPDRFSGSRSGTSASLAITSLQPEDEAQYYCQSYDSSLYAVFGGGTKLTVL

>  <log10 EC50>
0.98

$$$$
>  <Binder>
C153 (antibody, V domains shown) VH: EVQLVESGGGLIQPGGSLRLSCAASGFTVSSNYMSWVRQAPGKGLEWVSVIYSGYSTYYVDSVKGRFTISRDNSKNTLYLQMNSLRAEDTAVYYCARVGGAHSGYDGSFDYWGQGTLVTVSS VL: QSALTQPASVSGSPGQSITISCTGTSSDVGSYNLVSWYQQHPGKAPKLMIYEGSKRPSGVSNRFSGSKSGNTASLTISGLQAEDEADYYCCSYAGSSTWVFGGGTKLTVL

>  <log10 EC50>
0.50

$$$$
>  <Binder>
C155 (antibody, V domains shown) VH: EVQLVESGGGLIQPGGSLRLSCAASGFIVSSNYMSWVRQAPGKGLEWVSVIYSGGSTFYADSVKGRFTISRDNSKNTLYLQMNSLRAEDTAVYYCARDFGEFYFDYWGQGTLVTVSS VL: EIVMTQSPATLSVSPGERATLSCRASQSVSSNLAWYQQKPGQAPRLLIYGASTRATAIPARFSGSGSGTEFTLTISSLQSEDFAVYYCQQYNNWPRTFGQGTKVEIK

>  <log10 EC50>
0.52

$$$$

Data point: C116 (antibody, V domains shown) VH: QVQLVESGGGVVQPGRSLRLSCAASGFTYSTYAMHWVRQAPGKGLEWVAFISYDGSNKYYADSVKGRFTISRDNSKNTLYLQMNSLRAEDTAVYYCARDFYHNWFDPWGQGTLVTVSS VL: NFMLTQPHSVSESPGKTVTISCTGSSGSIASNYVQWYQQRPGSAPTTVIYEDNQRPSGVPDRFSGSIDRSSNSASLTISGLKTEDEADYYCQSYDSGNHWVVFGGGTRLTVL ; log10 EC50 = 1.58
